- target: Nicotinamide phosphoribosyltransferase (Homo sapiens)
- Sequence (P43490 whole entry, the tested form may be a part): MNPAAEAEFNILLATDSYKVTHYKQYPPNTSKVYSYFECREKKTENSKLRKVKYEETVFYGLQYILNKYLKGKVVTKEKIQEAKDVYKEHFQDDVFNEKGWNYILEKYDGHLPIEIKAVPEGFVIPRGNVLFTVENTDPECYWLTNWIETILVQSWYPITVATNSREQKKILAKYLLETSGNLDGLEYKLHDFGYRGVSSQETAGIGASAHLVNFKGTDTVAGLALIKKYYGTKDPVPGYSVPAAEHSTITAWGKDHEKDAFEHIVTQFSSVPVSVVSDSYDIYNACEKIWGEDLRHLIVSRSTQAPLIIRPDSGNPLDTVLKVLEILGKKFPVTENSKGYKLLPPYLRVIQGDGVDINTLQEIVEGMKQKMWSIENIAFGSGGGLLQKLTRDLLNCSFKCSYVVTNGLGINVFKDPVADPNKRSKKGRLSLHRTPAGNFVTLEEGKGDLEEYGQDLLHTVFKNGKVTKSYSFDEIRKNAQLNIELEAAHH
- test_details: Displacement of fluorescent labelled OG488 from human full length FLAG-tagged NAMPT (1 to 491 residues) expressed in HEK293-6E cells in absence of PRPP by TR-FRET assay
- Assay type: cell-based
pKi: −log10 of the molar value.
Output 1 (yes) for pKi not less than 7; output 0 (no) otherwise.

Could you verify whether the entry NCc1cccc(C(=O)N2CCC(CCCCNC(=O)/C=C/c3cccnc3)CC2)c1 shows pKi of no less than 7?
1 (yes)

Could you verify whether the entry O=C(/C=C/c1cccnc1)NCCCCC1CCN(C(=O)c2cccc(CNC(=O)COCCOCCNC(=O)CS(=O)(=O)O)c2)CC1 shows pKi of no less than 7?
0 (no)

Could you verify whether the entry CC(C)(C)OC(=O)NCCOCCOCC(=O)NCc1cccc(C(=O)N2CCC(CCCCNC(=O)/C=C/c3cccnc3)CC2)c1 shows pKi of no less than 7?
1 (yes)

Could you verify whether the entry O=C(/C=C/c1cccnc1)NCCCCC1CCN(C(=O)c2cccc(CNC(=O)COCCOCCNC(=O)C3C(C(=O)O)C(C(=O)O)C3C(=O)O)c2)CC1 (stereo unspecified) shows pKi of no less than 7?
0 (no)

Could you verify whether the entry NCCOCCOCC(=O)NCc1cccc(C(=O)N2CCC(CCCCNC(=O)/C=C/c3cccnc3)CC2)c1 shows pKi of no less than 7?
1 (yes)

----------
- target: Beta-2 adrenergic receptor (Homo sapiens)
- Sequence (P07550 whole entry, looked up): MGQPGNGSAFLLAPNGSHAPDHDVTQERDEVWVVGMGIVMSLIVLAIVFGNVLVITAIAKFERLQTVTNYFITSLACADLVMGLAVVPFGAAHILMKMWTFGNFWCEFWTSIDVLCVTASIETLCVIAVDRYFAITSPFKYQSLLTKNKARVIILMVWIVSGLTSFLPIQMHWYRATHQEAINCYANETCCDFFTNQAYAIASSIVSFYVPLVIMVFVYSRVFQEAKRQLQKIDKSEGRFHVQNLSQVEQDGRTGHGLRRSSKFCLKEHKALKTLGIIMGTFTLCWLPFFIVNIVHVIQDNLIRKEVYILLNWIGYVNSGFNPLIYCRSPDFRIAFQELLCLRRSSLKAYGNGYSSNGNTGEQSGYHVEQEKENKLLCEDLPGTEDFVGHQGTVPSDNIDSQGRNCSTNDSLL
- test_details: Displacement of [3H](-)CGP 12177 from human recombinant beta2 adrenoceptor after 120 mins by scintillation counting method relative to parent compound
Output yes for fold change (FC) not less than 7; output no otherwise.

Could you verify whether the entry C=CCc1ccccc1OCC(O)CNCCOCCOCCOCCOCCNC(=O)OC(C)(C)C (configuration not stated) shows fold change (FC) of no less than 7?
yes

Could you verify whether the entry CC(C)NCC(O)COc1ccccc1CCCSCC(=O)NCCOCCOCCNC(=O)CS(=O)(=O)O (configuration not stated) shows fold change (FC) of no less than 7?
no

Could you verify whether the entry CC(C)NCC(O)COc1ccccc1CCCSCC(=O)NCCOCCOCCN (configuration not stated) shows fold change (FC) of no less than 7?
no

Could you verify whether the entry C=CCc1ccccc1OCC(O)CNCCOCCOCCOCCOCCN (configuration not stated) shows fold change (FC) of no less than 7?
yes

Could you verify whether the entry COC(=O)CSCCCc1ccccc1OCC(O)CNC(C)C (configuration not stated) shows fold change (FC) of no less than 7?
no

Could you verify whether the entry C=CCc1ccccc1OCC(O)CNCCOCCOCCOCCOCCNC(=O)CCCCCC1(C)C(/C=C/C=C/C=C2/N(CCCS(=O)(=O)O)c3ccc(S(=O)(=O)O)cc3C2(C)C)=[N+](CCCS(=O)(=O)[O-])c2ccc(S(=O)(=O)O)cc21 (configuration not stated) shows fold change (FC) of no less than 7?
yes

Could you verify whether the entry C=CCc1ccccc1OCC(O)CNCCOCCOCCOCCOCCNC(=O)C1C(C(=O)O)C(C(=O)O)C1C(=O)O (configuration not stated) shows fold change (FC) of no less than 7?
yes

----------
- target: 5-hydroxytryptamine receptor 1A (Homo sapiens)
- test_details: Displacement of [3H]-OH-DPAT from human recombinant 5-HT1A receptor measured after 60 mins by scintillation counter method relative to parent compound
Task for the reader: assign each of the following compounds its reported fold change (FC).
Number only, please.

Provide fold change (FC), tested on 5-hydroxytryptamine receptor 1A (Homo sapiens), for C=CCc1ccccc1OCC(O)CNCCOCCOCCOCCOCCNC(=O)C1C(C(=O)O)C(C(=O)O)C1C(=O)O (stereo unspecified) .
82.4

Provide fold change (FC), tested on 5-hydroxytryptamine receptor 1A (Homo sapiens), for CC(C)NCC(O)COc1ccccc1CCCSCC(=O)NCCOCCOCCNC(=O)CS(=O)(=O)O (stereo unspecified) .
15.1

Provide fold change (FC), tested on 5-hydroxytryptamine receptor 1A (Homo sapiens), for CC(C)NCC(O)COc1ccccc1CCCSCC(=O)NCCOCCOCCN (stereo unspecified) .
6.32

Provide fold change (FC), tested on 5-hydroxytryptamine receptor 1A (Homo sapiens), for COC(=O)CSCCCc1ccccc1OCC(O)CNC(C)C (stereo unspecified) .
1

Provide fold change (FC), tested on 5-hydroxytryptamine receptor 1A (Homo sapiens), for C=CCc1ccccc1OCC(O)CNCCOCCOCCOCCOCCNC(=O)CS(=O)(=O)O (stereo unspecified) .
12.1

Provide fold change (FC), tested on 5-hydroxytryptamine receptor 1A (Homo sapiens), for CC(C)NCC(O)COc1ccccc1CCCSCC(=O)NCCOCCOCCNC(=O)CCCCCC1(C)C(/C=C/C=C/C=C2/N(CCCS(=O)(=O)O)c3ccc(S(=O)(=O)O)cc3C2(C)C)=[N+](CCCS(=O)(=O)[O-])c2ccc(S(=O)(=O)O)cc21 (stereo unspecified) .
18.9

Provide fold change (FC), tested on 5-hydroxytryptamine receptor 1A (Homo sapiens), for CC(C)NCC(O)COc1ccccc1CCCSCC(=O)NCCOCCOCCNC(=O)C1C(C(=O)O)C(C(=O)O)C1C(=O)O (stereo unspecified) .
35.2

Provide fold change (FC), tested on 5-hydroxytryptamine receptor 1A (Homo sapiens), for C=CCc1ccccc1OCC(O)CNCCOCCOCCOCCOCCN (stereo unspecified) .
1.66

Provide fold change (FC), tested on 5-hydroxytryptamine receptor 1A (Homo sapiens), for CC(C)NCC(O)COc1ccccc1CCCSCC(=O)NCCOCCOCCNC(=O)OC(C)(C)C (stereo unspecified) .
0.871

Provide fold change (FC), tested on 5-hydroxytryptamine receptor 1A (Homo sapiens), for C=CCc1ccccc1OCC(O)CNCCOCCOCCOCCOCCNC(=O)OC(C)(C)C (stereo unspecified) .
1.12

Provide fold change (FC), tested on 5-hydroxytryptamine receptor 1A (Homo sapiens), for C=CCc1ccccc1OCC(O)CNCCOCCOCCOCCOCCNC(=O)CCCCCC1(C)C(/C=C/C=C/C=C2/N(CCCS(=O)(=O)O)c3ccc(S(=O)(=O)O)cc3C2(C)C)=[N+](CCCS(=O)(=O)[O-])c2ccc(S(=O)(=O)O)cc21 (stereo unspecified) .
132
